For each entry below, report its thermal stability score value.
Tested on: HeLa Kyoto;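 also: synchronized HeLa Kyoto cells, proteins quantified by TMT10plex mass spectrometry, three biological replicates, mitosis taken 0.5 h after nocodazole release, G1/S directly after double thymidine block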
Experiment: thermal stability score vs G1/S (z-score of summed log2 fold changes over temperatures); higher = more thermally stable than in G1/S
Details: cell cycle stage: mitosis
The answer should be written as a number, with no unit following it.

Provide one value: measured thermal stability score of MAEVKVKVQPPDADPVEIENRIIELCHQFPHGITDQVIQNEMPHIEAQQRAVAINRLLSMGQLDLLRSNTGLLYRIKDSQNAGKMKGSDNQEKLVYQIIEDAGNKGIWSRDIRYKSNLPLTEINKILKNLESKKLIKAVKSVAASKKKVYMLYNLQPDRSVTGGAWYSDQDFESEFVEVLNQQCFKFLQSKAETARESKQNPMIQRNSSFASSHEVWKYICELGISKVELSMEDIETILNTLIYDGKVEMTIIAAKEGTVGSVDGHMKLYRAVNPIIPPTGLVRAPCGLCPVFDDCHEGGEISPSNCIYMTEWLEF [POLR3F]
-1.78

Write down thermal stability score measured for item MVAVLGGRGVLRLRLLLSALKPGIHVPRAGPAAAFGTSVTSAKVAVNGVQLHYQQTGEGDHAVLLLPGMLGSGETDFGPQLKNLNKKLFTVVAWDPRGYGHSRPPDRDFPADFFERDAKDAVDLMKALKFKKVSLLGWSDGGITALIAAAKYPSYIHKMVIWGANAYVTDEDSMIYEGIRDVSKWSERTRKPLEALYGYDYFARTCEKWVDGIRQFKHLPDGNICRHLLPRVQCPALIVHGEKDPLVPRFHADFIHKHVKGSRLHLMPEGKHNLHLRFADEFNKLAEDFLQ [BPHL]
0.206

Let me know recorded thermal stability score for "ARHGEF12" , thanks.
0.3

Using the record for MAASAGAGAVIAAPDSRRWLWSVLAAALGLLTAGVSALEVYTPKEIFVANGTQGKLTCKFKSTSTTGGLTSVSWSFQPEGADTTVSFFHYSQGQVYLGNYPPFKDRISWAGDLDKKDASINIENMQFIHNGTYICDVKNPPDIVVQPGHIRLYVVEKENLPVFPVWVVVGIVTAVVLGLTLLISMILAVLYRRKNSKRDYTGCSTSESLSPVKQAPRKSPSDTEGLVKSLPSGSHQGPVIYAQLDHSGGHHSDKINKSESVVYADIRKN [MPZL1] , state its measured thermal stability score.
-3.55

Return thermal stability score for the following substance: MDLRQFLMCLSLCTAFALSKPTEKKDRVHHEPQLSDKVHNDAQSFDYDHDAFLGAEEAKTFDQLTPEESKERLGKIVSKIDGDKDGFVTVDELKDWIKFAQKRWIYEDVERQWKGHDLNEDGLVSWEEYKNATYGYVLDDPDPDDGFNYKQMMVRDERRFKMADKDGDLIATKEEFTAFLHPEEYDYMKDIVVQETMEDIDKNADGFIDLEEYIGDMYSHDGNTDEPEWVKTEREQFVEFRDKNRDGKMDKEETKDWILPSDYDHAEAEARHLVYESDQNKDGKLTKEEIVDKYDLFVGSQATDFGEALVRHDEF [CALU]
-0.549

Specify measured thermal stability score for MATGGYRTSSGLGGSTTDFLEEWKAKREKMRAKQNPPGPAPPGGGSSDAAGKPPAGALGTPAAAAANELNNNLPGGAPAAPAVPGPGGVNCAVGSAMLTRAAPGPRRSEDEPPAASASAAPPPQRDEEEPDGVPEKGKSSGPSARKGKGQIEKRKLREKRRSTGVVNIPAAECLDEYEDDEAGQKERKREDAITQQNTIQNEAVNLLDPGSSYLLQEPPRTVSGRYKSTTSVSEEDVSSRYSRTDRSGFPRYNRDANVSGTLVSSSTLEKKIEDLEKEVVRERQENLRLVRLMQDKEEMIGKLKEEIDLLNRDLDDIEDENEQLKQENKTLLKVVGQLTR [PAWR] .
-1.76

Tell me measured thermal stability score for MEMKKKINLELRNRSPEEVTELVLDNCLCVNGEIEGLNDTFKELEFLSMANVELSSLARLPSLNKLRKLELSDNIISGGLEVLAEKCPNLTYLNLSGNKIKDLSTVEALQNLKNLKSLDLFNCEITNLEDYRESIFELLQQITYLDGFDQEDNEAPDSEEEDDEDGDEDDEEEEENEAGPPEGYEEEEEEEEEEDEDEDEDEDEAGSELGEGEEEVGLSYLMKEEIQDEEDDDDYVEEGEEEEEEEEGGLRGEKRKRDAEDDGEEEDD [ANP32E] please.
4.82

Give the reported value of thermal stability score for this record: MFISLWEFFYGHFFRFWMKWLLRQMTGKCELQRIFDTYVGAQRTHRIENSLTYSKNKVLQKATHVVQSEVDKYVDDIMKEKNINPEKDASFKICMKMCLLQITGYKQLYLDVESVRKRPYDSDNLQHEELLMKLWNLLMPTKKLNARISKQWAEIGFQGDDPKTDFRGMGILGLINLVYFSENYTSEAHQILSRSNHPKLGYSYAIVGINLTEMAYSLLKSEALKFHLYNLVPGIPTMEHFHQFYCYLVYEFDKFWFEEEPESIMYFNLYREKFHEKIKGLLLDCNVALTLKV [ELMOD2]
-0.0202

Report thermal stability score, nothing else, for this substance: MSDDDSRASTSSSSSSSSNQQTEKETNTPKKKESKVSMSKNSKLLSTSAKRIQKELADITLDPPPNCSAGPKGDNIYEWRSTILGPPGSVYEGGVFFLDITFTPEYPFKPPKVTFRTRIYHCNINSQGVICLDILKDNWSPALTISKVLLSICSLLTDCNPADPLVGSIATQYMTNRAEHDRMARQWTKRYAT [UBE2E1]
3.2

Find the measured thermal stability score of MATKGGTVKAASGFNAMEDAQTLRKAMKGLGTDEDAIISVLAYRNTAQRQEIRTAYKSTIGRDLIDDLKSELSGNFEQVIVGMMTPTVLYDVQELRRAMKGAGTDEGCLIEILASRTPEEIRRISQTYQQQYGRSLEDDIRSDTSFMFQRVLVSLSAGGRDEGNYLDDALVRQDAQDLYEAGEKKWGTDEVKFLTVLCSRNRNHLLHVFDEYKRISQKDIEQSIKSETSGSFEDALLAIVKCMRNKSAYFAEKLYKSMKGLGTDDNTLIRVMVSRAEIDMLDIRAHFKRLYGKSLYSFIKGDTSGDYRKVLLVLCGGDD [ANXA4] and report it.
4.03

Identify measured thermal stability score associated with MPKKKTGARKKAENRREREKQLRASRSTIDLAKHPCNASMECDKCQRRQKNRAFCYFCNSVQKLPICAQCGKTKCMMKSSDCVIKHAGVYSTGLAMVGAICDFCEAWVCHGRKCLSTHACACPLTDAECVECERGVWDHGGRIFSCSFCHNFLCEDDQFEHQASCQVLEAETFKCVSCNRLGQHSCLRCKACFCDDHTRSKVFKQEKGKQPPCPKCGHETQETKDLSMSTRSLKFGRQTGGEEGDGASGYDAYWKNLSSDKYGDTSYHDEEEDEYEAEDDEEEEDEGRKDSDTESSDLFTNLNLGRTYASGYAHYEEQEN [ZNF330]
0.774
